system: SR leukemia; assay: NCI tumour cell line growth inhibition, 48 h
Answer not met if TGI is under 30 µM, and met if it is 30 µM or more.

Illustrative cases are given below, each with its answer.
Nc1nc(Cl)cc(NCC2(CO)CC(Cc3ccccc3)C2)n1 (configuration not stated)	met
CN(C)CC1CN(C(=O)Nc2ccccc2)C(=N)O1 (configuration not stated)	met
C/C(=C\c1ccc2c(c1)OCO2)[N+](=O)[O-]	not met
CC[C@]12C=CCN3CCC4(c5cc(N=Nc6ccc([N+](=O)[O-])cc6)c(OC)cc5N(C)[C@H]4[C@@](O)(C(=O)OC)[C@@H]1OC(C)=O)[C@@H]32 (some centres not stated)	met
CSc1ccc2c(c1)C(=O)c1c-2n(CCCN=[N+]=[N-])c(=O)c2cc([N+](=O)[O-])ccc12	not met

Is reported TGI greater than or equal to 30 µM here: COc1cccc(-c2cc(NCc3ccc4c(c3)OCO4)nc(N)n2)c1
met

Is reported TGI greater than or equal to 30 µM here: COc1ccc2c(c1)N(CCC1CCCCN1C)c1ccccc1S2 (configuration not stated)
not met

Is reported TGI greater than or equal to 30 µM here: COC(=O)[C@]1(C)CCC[C@]2(C)C3CC4OOC3(C=C4C(C)C)CCC21 (some centres not stated)
not met

Is reported TGI greater than or equal to 30 µM here: C(#Cc1ccccc1C#Cc1ccccn1)c1ccc(OCCCCCCOc2ccc(C#Cc3ccccc3C#Cc3ccccn3)cc2)cc1
not met

Is reported TGI greater than or equal to 30 µM here: CC(C)(C)C1CCN(C(=O)c2ccccc2)CC1
met

Is reported TGI greater than or equal to 30 µM here: Nc1nc(Cl)cc(NCC2(CO)CCC(OCc3ccccc3)C2)n1 (configuration not stated)
met

Is reported TGI greater than or equal to 30 µM here: CC(=O)/C=C/c1ccc(N(C)Cc2ccc(C(C)(C)C)cc2)cc1
met

Is reported TGI greater than or equal to 30 µM here: c1ccc(-c2cc(-c3cc(-c4ccccc4)no3)on2)cc1
met

Is reported TGI greater than or equal to 30 µM here: O=C(CN1CCCC1)Nc1ccc2sc3ccccc3c(=O)c2n1
met

Is reported TGI greater than or equal to 30 µM here: CCOC(=O)C1C(=O)CC(C)(O)C(C(=O)OCC)C1c1ccc(OC)cc1 (configuration not stated)
met

Is reported TGI greater than or equal to 30 µM here: COC(=O)C1CCc2nnc(-c3cccnc3)n21 (configuration not stated)
met

Is reported TGI greater than or equal to 30 µM here: COc1ccc(OC)c2c3c(ncc12)-c1cc2c(cc1C3)OCO2
met

Is reported TGI greater than or equal to 30 µM here: FC(F)(F)c1ccccc1C=NC12CC3CC(CC(C3)C1)C2
met

Is reported TGI greater than or equal to 30 µM here: O=C1NCN(c2ccccc2)C12CCN(CCCSc1ccc(F)cc1)CC2
met

Is reported TGI greater than or equal to 30 µM here: CN(C)N1C(=O)CC2(CCN(CCCC(=O)c3ccc(F)cc3)CC2)C1=O
met

Is reported TGI greater than or equal to 30 µM here: Cn1c(C2CC(C)(C)c3c2c2ccccc2n3C)cc2ccccc21 (configuration not stated)
met

Is reported TGI greater than or equal to 30 µM here: O=C(Nc1cccc2ccccc12)c1cc2ccccc2cc1O
not met

###

TGI: recorded values
test system: EKVX NSCLC; test: NCI tumour cell line growth inhibition, 48 h

Answered examples (3):
COC(=O)/C(Cl)=C1/CC1COCc1ccccc1 (stereo unspecified)	> 10 µM
O=c1[nH]c(C2CCCCC2)nc2cc(Cl)ccc12	> 100 µM
COc1cc([C@@H]2c3cc4c(cc3[C@@H](NC(=O)c3ccc([N+](=O)[O-])cc3)C3COC(=O)[C@@H]32)OCO4)cc(OC)c1O (stereo partly specified)	6.55 µM

Summary for this compound, CC1(c2nc3cc(Cl)c(Cl)cc3[nH]2)CCC(C(=O)O)C(C)(C)O1 (stereo unspecified) : TGI is > 100 µM

Summary for this compound, CN(C)C1COC2Cc3ccccc3C1O2 (stereo unspecified) : TGI is > 100 µM

Summary for this compound, Cc1ccc2cccc(OC(=O)c3cc4c(cc3Cl)Sc3nccn3S4(=O)=O)c2n1 : TGI is 48 µM

###

test system: KM12 colon; test: NCI tumour cell line growth inhibition, 48 h
TGI: recorded values

Answered examples (4):
CCCN1CN(C(C(=O)N[C@@H]2C(=O)N3C(C(=O)O)=C(C)CSC23)c2ccccc2)CSC1=S (stereo partly specified)	> 100 µM
CSc1ccc2c(c1)C(=O)c1c-2n(CCCN=[N+]=[N-])c(=O)c2cc([N+](=O)[O-])ccc12	> 100 µM
Clc1ccc(CCn2cncn2)c(Cl)c1	> 100 µM
[O-][N+]1=C(c2ccccc2)COc2ccccc21	> 100 µM

Summary for this compound, N=c1c2ccccc2nc2oc3ccc(Cl)cc3n12 : TGI is > 100 µM

Summary for this compound, C[C@]12CCC(=O)C=C1CC[C@@H]1[C@@H]2CC[C@]2(C)C(=O)/C(=C\c3ccccc3)C[C@@H]12 : TGI is > 64.3 µM

###

tested on: HOP-92 NSCLC; assay: NCI tumour cell line growth inhibition, 48 h
property.name: GI50

Answered examples (2):
N=C(N)c1ccc(-c2ccc(-c3ccco3)o2)cc1F	968 nM
CSc1ccc2c(c1)C(=O)c1c-2n(CCCN=[N+]=[N-])c(=O)c2cc([N+](=O)[O-])ccc12	5240 nM

Assay HOP-92 NSCLC, sample CCN(CC)CCCC(C)Nc1ccnc2cc(Cl)c(SCc3ccccc3)cc12 (stereo not drawn) , GI50 read: 1140 nM

###

system: HCT-15 colon; test: NCI tumour cell line growth inhibition, 48 h; in the data active means GI50 below about 0.43 µM; inactive means the rest
Pick from active, inactive when you respond.

O=C(Nc1cccc2ccccc12)c1cc2ccccc2cc1O	inactive
CC1=C(C(=O)Nc2ccc(Cl)c(Cl)c2)C(c2cccc(O)c2)NC(=S)N1 (stereo not drawn)	inactive
COc1cc2c(cc1C)NC(=O)/C2=C/c1c(C)nc2sc(C)cn12	inactive
O=CNc1ccc2c(c1)Cc1cc([N+](=O)[O-])ccc1-2	inactive
CC(=O)O[C@@H]1CC(=O)O[C@@H]2C[C@@H](CC/C(Cl)=C/C/C=C\1C)O[C@@H]2CO	inactive

What did the test return for CCN1CCN(Cc2ccc3cc(C(=O)Nc4cc(NC(=O)c5ccc6c(c5)OCCO6)ccc4F)ccc3n2)CC1 ?
active

What did the test return for COc1ccc2cc(C(=O)/C=C/c3ccccc3OC)ccc2c1 ?
inactive

What did the test return for Cc1cc(Cl)ccc1Nc1nc(C(F)(F)F)ccc1C(=O)N/N=C/c1ccc(F)cc1 ?
inactive

###

test system: OVCAR-8 ovarian; assay: NCI tumour cell line growth inhibition, 48 h
TGI: recorded values

Clc1ccc(CCn2cncn2)c(Cl)c1	> 100 µM
Cc1ccccc1C(C#N)/C(=N/NC(=O)C(=O)NN)C(=O)Nc1cccc(C(F)(F)F)c1 (stereo not drawn)	> 100 µM

Consider the record given below.
Summary for this compound, O=C(O)C1CCCN1Cc1ccc2c(c1)OCO2 (stereo not drawn) : TGI is > 100 µM

###

test system: OVCAR-5 ovarian; test: NCI tumour cell line growth inhibition, 48 h
TGI: recorded values

Answered examples (5):
Cc1ccc2nc(Cl)c(/C=N/N3C(=O)/C(=C/Cc4ccco4)N=C3c3ccccc3)cc2c1	> 100 µM
Cc1cccc(C(O)c2ccccn2)c1O (configuration not stated)	> 100 µM
CC1OC2OC3C(OCC(O)C3O)OC(=O)[C@]34CCC(C)(C)CC3C3=CCC5[C@@]6(C)C[C@H](O)[C@H](OC7OC(CO)C(O)C(O)C7OC7OC(COC(=O)CC(C)(O)CC(=O)OC1C(O)C2O)C(O)C(O)C7O)[C@@](C)(CO)C6CC[C@@]5(C)[C@]3(C)CC4 (some centres not stated)	2.85 µM
NNc1nc(-c2ccccn2)nc2sc3c(c12)CCCCCC3	> 100 µM
CC(C)C(/C=C/c1ccc(Cl)cc1)=N\NC(=S)NN	> 100 µM

Assay OVCAR-5 ovarian, sample N=c1c2ccccc2nc2oc3ccc(Cl)cc3n12 , TGI read: 47.1 µM

Assay OVCAR-5 ovarian, sample CO[C@H]1C[C@H](O[C@H]2CC[C@]3(C=O)[C@H]4CC[C@]5(C)[C@@H](C6=CC(=O)OC6)CC[C@]5(O)[C@@H]4CC[C@]3(O)C2)O[C@H](C)[C@H]1O[C@@H]1O[C@H](CO[C@@H]2O[C@H](CO)[C@@H](O)[C@H](O)[C@H]2O)[C@@H](O)[C@H](O)[C@H]1O , TGI read: 0.199 µM

Assay OVCAR-5 ovarian, sample O=C1[C@H](c2ccccc2)C2c3ccccc3CCN12 (some centres not stated) , TGI read: > 100 µM

Assay OVCAR-5 ovarian, sample C=C1CCC2C(C)(CO)C(O)CCC2(C)C1CC(O)C1=CCOC1=O (configuration not stated) , TGI read: > 100 µM

Assay OVCAR-5 ovarian, sample O=c1[nH][nH]c(=S)c(=O)[nH]1 , TGI read: > 100 µM

Assay OVCAR-5 ovarian, sample NC(CCCNCc1ccccc1O)C(=O)O (configuration not stated) , TGI read: > 100 µM

Assay OVCAR-5 ovarian, sample COc1cc2c(/C=C3/C(=O)Nc4c3ccc3ccccc43)c(Cl)[nH]c2cc1C , TGI read: > 50 µM
